Test system: DNA aptamer or structured DNA TTCAAATCTATGGTGCAGTGCGCAGGGACGGAGGTAAAACATGAGTTTTAGTCTAGATTTGAA
SETUP CONDITIONS: 10 mM Tris-HCl, pH 7.4

GIVEN SMILES: CN[C@@H](C)Cc1ccccc1
UNIT: nM
Kd: 1550

---

Tested on: DNA aptamer or structured DNA GGGACGACCGTCCGAGTTTTAGGAGTGGTTGCATTGCGCTGGGAAGAGGTCGTCCC
SETUP CONDITIONS: 10 mM Tris-HCl, pH 7.4
MEASUREMENT KIND: binding call; further: call rule not given here

COMPOUND: NCCc1ccc(O)c(O)c1
VAL: no binding
--
COMPOUND: COc1cc(CC(=O)O)ccc1O
VAL: no binding
--
COMPOUND: NCC(O)c1ccc(O)c(O)c1 (configuration not stated)
VAL: no binding
--
COMPOUND: CNC(C)Cc1ccc(O)cc1 (configuration not stated)
VAL: binds
--
COMPOUND: CN1CC[C@]23c4c5ccc(O)c4O[C@H]2[C@@H](O)C=C[C@H]3[C@H]1C5
VAL: no binding
--
COMPOUND: C=C[C@H]1CN2CC[C@@H]1C[C@H]2[C@H](O)c1ccnc2ccc(OC)cc12
VAL: binds
--
COMPOUND: CC(NC(C)(C)C)C(=O)c1cccc(Cl)c1 (configuration not stated)
VAL: binds
--
COMPOUND: CC(N)Cc1ccccc1 (configuration not stated)
VAL: binds
--
COMPOUND: NCCc1ccc(O)cc1
VAL: no binding
--
COMPOUND: N[C@@H](Cc1ccccc1)C(=O)O
VAL: no binding
--
COMPOUND: CNC(C)Cc1ccc2c(c1)OCO2 (configuration not stated)
VAL: binds
--
COMPOUND: NCCc1c[nH]c2ccc(O)cc12
VAL: binds

---

System: DNA aptamer or structured DNA GGGACGACAAGTACCAAGGGTAGCTCTGCGTTGTTCGAGGTCGTCCC
SETUP CONDITIONS: 10 mM Tris-HCl, pH 7.4
MEASUREMENT KIND: Kd (nM)

GIVEN SMILES: CC(=O)Oc1ccc2c3c1O[C@H]1[C@@H](OC(C)=O)C=C[C@H]4[C@@H](C2)N(C)CC[C@@]341
VAL: 2180

---

Tested on: DNA aptamer or structured DNA CTTACGACTAGTCGGTGGGGGGTAGGCGGAGGGTTGTTGTCGTAAG
SETUP CONDITIONS: 10 mM Tris-HCl, pH 7.4

MOLECULE: CC(C)[C@H](NC(=O)c1nn(Cc2ccc(F)cc2)c2ccccc12)C(N)=O
binding call: no binding

MOLECULE: CC(C)Cc1ccc(C(C)C(=O)O)cc1 (stereo not drawn)
binding call: no binding

MOLECULE: Cc1nnc2n1-c1ccc(Cl)cc1C(c1ccccc1)=NC2
binding call: no binding

---

System: DNA aptamer or structured DNA CTTACGACGCGGACGTTGTGGGGCGTGGCAGTCGGTGAGTCGTAAG
SETUP CONDITIONS: 10 mM Tris-HCl, pH 7.4
MEASUREMENT KIND: binding call; further: call rule not given here

MOLECULE: CCOC(=O)c1ccc(N)cc1
VAL: no binding
//
MOLECULE: CNC(C)Cc1ccc2c(c1)OCO2 (centres undefined)
VAL: binds
//
MOLECULE: CCN(CC)CCOC(=O)c1ccc(N)cc1
VAL: no binding
//
MOLECULE: Cc1nnc2n1-c1ccc(Cl)cc1C(c1ccccc1)=NC2
VAL: no binding

---

System: DNA aptamer or structured DNA GGGACGACGGCAATTGCCGGTGCAGGATCTGAATTATCGTCGTCCC
SETUP CONDITIONS: 10 mM Tris-HCl, pH 7.4

MOLECULE: COC(=O)[C@@H]1C2CCC(C[C@@H]1OC(=O)c1ccccc1)N2C (stereo partly drawn)
binding call: no binding
--
MOLECULE: O=C(O)Cc1ccc(O)c(O)c1
binding call: no binding
--
MOLECULE: CNC(C)Cc1ccc(O)cc1 (stereo not drawn)
binding call: binds
--
MOLECULE: CCN(CC)CC(=O)Nc1c(C)cccc1C
binding call: no binding
--
MOLECULE: CC(NC(C)(C)C)C(=O)c1cccc(Cl)c1 (stereo not drawn)
binding call: no binding
--
MOLECULE: CN[C@@H](C)[C@@H](O)c1ccccc1
binding call: binds
--
MOLECULE: NCCc1ccc(O)cc1
binding call: binds
--
MOLECULE: Cn1c(=O)c2c(ncn2C)n(C)c1=O
binding call: no binding
--
MOLECULE: CN1CC[C@]23c4c5ccc(O)c4O[C@H]2[C@@H](O)C=C[C@H]3[C@H]1C5
binding call: no binding
--
MOLECULE: NCCc1ccc(O)c(O)c1
binding call: binds
--
MOLECULE: C=C[C@H]1CN2CC[C@@H]1C[C@H]2[C@H](O)c1ccnc2ccc(OC)cc12
binding call: binds
--
MOLECULE: CCC(=O)C(CC(C)N(C)C)(c1ccccc1)c1ccccc1 (stereo not drawn)
binding call: no binding
--
MOLECULE: N[C@@H](Cc1ccccc1)C(=O)O
binding call: no binding

---

Test system: DNA aptamer or structured DNA GGGACGACGCGCATGTGGTGTCGGTCAGATGGGATGAAGTCGTCCC
SETUP CONDITIONS: 10 mM Tris-HCl, pH 7.4
pKd: −log10 of the molar value.
MEASUREMENT KIND: pKd

GIVEN SMILES: COc1ccc2c3c1O[C@H]1C(=O)CC[C@@]4(O)[C@@H](C2)N(C)CC[C@]314
VAL: 5.43

---

Tested on: DNA aptamer or structured DNA GGGACGACTACAGGTCGTGCGTCGCTCGAGTTGGTGAGTGTGTCGTCCC
SETUP CONDITIONS: 10 mM Tris-HCl, pH 7.4

GIVEN SMILES: CN1CC[C@]23c4c5ccc(O)c4O[C@H]2[C@@H](O)C=C[C@H]3[C@H]1C5
Kd (µM): 3.5

---

Test system: DNA aptamer or structured DNA GGGACGACGGCACGAGGTTATTCGTTGGTTGCACTGCGCTGGGAGGAAGTCGTCCC
SETUP CONDITIONS: 10 mM Tris-HCl, pH 7.4
MEASUREMENT KIND: Kd (µM)

GIVEN SMILES: CN[C@@H](C)Cc1ccccc1
VAL: 3.3

---

System: DNA aptamer or structured DNA GGGACGACGAGGGCACGTCTGTGTGCAGGGTTTCGCGCGTCGTCCC
SETUP CONDITIONS: 10 mM Tris-HCl, pH 7.4

COMPOUND: CCNC(C)C(=O)c1ccc2c(c1)OCO2 (stereo not given)
EXPERIMENTAL SYSTEM: DNA aptamer or structured DNA GGGACGACGAGGGCACGTCTGTGTGCAGGGTTTCGCGCGTCGTCCC
binding call: binds

COMPOUND: C=CCN1CC[C@]23c4c5ccc(O)c4O[C@H]2C(=O)CC[C@@]3(O)[C@H]1C5
EXPERIMENTAL SYSTEM: DNA aptamer or structured DNA GGGACGACGAGGGCACGTCTGTGTGCAGGGTTTCGCGCGTCGTCCC
binding call: no binding

COMPOUND: Cc1cccc(C)c1NC1=NCCCS1
EXPERIMENTAL SYSTEM: DNA aptamer or structured DNA GGGACGACGAGGGCACGTCTGTGTGCAGGGTTTCGCGCGTCGTCCC
binding call: no binding

COMPOUND: Cc1nnc2n1-c1ccc(Cl)cc1C(c1ccccc1)=NC2
EXPERIMENTAL SYSTEM: DNA aptamer or structured DNA GGGACGACGAGGGCACGTCTGTGTGCAGGGTTTCGCGCGTCGTCCC
binding call: binds

COMPOUND: C=C[C@H]1CN2CC[C@@H]1C[C@H]2[C@H](O)c1ccnc2ccc(OC)cc12
EXPERIMENTAL SYSTEM: DNA aptamer or structured DNA GGGACGACGAGGGCACGTCTGTGTGCAGGGTTTCGCGCGTCGTCCC
binding call: no binding

COMPOUND: O=C1CC[C@@]2(O)[C@H]3Cc4ccc(O)c5c4[C@@]2(CCN3CC2CC2)[C@H]1O5
EXPERIMENTAL SYSTEM: DNA aptamer or structured DNA GGGACGACGAGGGCACGTCTGTGTGCAGGGTTTCGCGCGTCGTCCC
binding call: binds

COMPOUND: CN1C(=O)CN=C(c2ccccc2)c2cc(Cl)ccc21
EXPERIMENTAL SYSTEM: DNA aptamer or structured DNA GGGACGACGAGGGCACGTCTGTGTGCAGGGTTTCGCGCGTCGTCCC
binding call: binds

COMPOUND: CC(=O)Nc1ccc(O)cc1
EXPERIMENTAL SYSTEM: DNA aptamer or structured DNA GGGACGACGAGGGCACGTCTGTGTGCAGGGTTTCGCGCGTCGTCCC
binding call: binds

COMPOUND: CN[C@@H](C)Cc1ccccc1
EXPERIMENTAL SYSTEM: DNA aptamer or structured DNA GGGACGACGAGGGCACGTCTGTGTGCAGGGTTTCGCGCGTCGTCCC
binding call: no binding

COMPOUND: COC(=O)[C@@H]1C2CCC(C[C@@H]1OC(=O)c1ccccc1)N2C (stereo not given in full)
EXPERIMENTAL SYSTEM: DNA aptamer or structured DNA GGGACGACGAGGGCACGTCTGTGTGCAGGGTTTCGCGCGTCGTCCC
binding call: no binding
